# system name: GST-tagged-Wee1 kinase (Homo sapiens, UniProt P30291)
# Sequence (P30291 whole entry): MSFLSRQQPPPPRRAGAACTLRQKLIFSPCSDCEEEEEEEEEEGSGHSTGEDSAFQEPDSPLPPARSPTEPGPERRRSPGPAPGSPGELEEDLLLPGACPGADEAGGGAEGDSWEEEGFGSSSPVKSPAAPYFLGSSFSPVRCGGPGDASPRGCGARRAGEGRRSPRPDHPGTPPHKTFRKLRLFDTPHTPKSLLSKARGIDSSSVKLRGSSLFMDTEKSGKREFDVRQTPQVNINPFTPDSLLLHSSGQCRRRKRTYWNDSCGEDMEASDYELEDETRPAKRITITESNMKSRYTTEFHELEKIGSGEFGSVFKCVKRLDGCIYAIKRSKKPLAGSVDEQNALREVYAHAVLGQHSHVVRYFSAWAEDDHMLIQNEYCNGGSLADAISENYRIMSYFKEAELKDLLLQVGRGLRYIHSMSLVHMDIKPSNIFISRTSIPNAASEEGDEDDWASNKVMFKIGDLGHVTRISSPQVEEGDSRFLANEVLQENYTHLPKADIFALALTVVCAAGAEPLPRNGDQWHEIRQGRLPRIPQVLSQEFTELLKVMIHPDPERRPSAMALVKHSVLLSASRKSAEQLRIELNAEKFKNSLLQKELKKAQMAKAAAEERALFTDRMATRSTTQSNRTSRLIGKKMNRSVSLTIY
# test protocol: Wee1 time-resolved fluorescence equilibrium binding assay (displacement of Oregon Green-labeled ATP-competitive kinase probe)
measure: log10 Ki (log10 of the value in nM)
The base-10 logarithm of Ki, taken with Ki in nM, is what appears here.

Recorded results for 2 compounds are shown here.
O=c1c2cnc(Nc3ccc(N4CCNCC4)cc3)nc2c(-c2nccs2)nn1-c1c(Cl)cccc1Cl [Example 344]	-0.60
CN1CCN(c2ccc(Nc3ncc4c(=O)n(-c5ccccc5Cl)nc(-c5ccsc5)c4n3)cc2)CC1 [Example 96]	-0.70

Name the recorded log10 Ki of the item Cc1nn(-c2c(Cl)cccc2Cl)c(=O)c2cnc(Nc3ccc(N4CCN(C)CC4)cc3)nc12 [Example 314] in your answer.
0.08

Name the recorded log10 Ki of the item CN1CCN(c2ccc(Nc3ncc4c(=O)n(-c5ccccc5C(F)(F)F)nc(-c5ccc(Cl)cc5Cl)c4n3)cc2)CC1 [Example 39] in your answer.
2.40

Name the recorded log10 Ki of the item Cc1nn(-c2c(F)cccc2Cl)c(=O)c2cnc(Nc3ccc4c(c3)CNCC4)nc12 [Example 398] in your answer.
0.00

Name the recorded log10 Ki of the item CN1CCN(c2ccc(Nc3ncc4c(=O)n(-c5c(Cl)cccc5Cl)nc(-c5cccc(F)c5)c4n3)cc2)CC1 [Example 84] in your answer.
-1.00

Name the recorded log10 Ki of the item Cc1ccccc1-n1nc(-c2ccco2)c2nc(Nc3ccc(CN(C)C)cc3)ncc2c1=O [Example 106] in your answer.
0.70

Name the recorded log10 Ki of the item CN1CCN(c2ccc(Nc3ncc4c(=O)n(-c5c(Cl)cccc5Cl)nc(-c5ccc(C(=O)NC6CCC6)cc5)c4n3)cc2)CC1 [Example 292] in your answer.
-0.32

Name the recorded log10 Ki of the item NCCn1ccc(-c2nn(-c3c(Cl)cccc3Cl)c(=O)c3cnc(Nc4ccc(N5CCNCC5)cc4)nc23)n1 [Example 259] in your answer.
-0.70

Name the recorded log10 Ki of the item O=c1c2cnc(Nc3ccc4c(c3)CNCC43CC3)nc2c(C(F)(F)F)nn1-c1c(Cl)cccc1Cl [Example 420] in your answer.
-0.35

Name the recorded log10 Ki of the item CC1CCCC(C)C1n1nc(-c2ccccn2)c2nc(Nc3ccc4c(c3)CNCC4(C)C)ncc2c1=O (stereo not drawn) [Example 331] in your answer.
2.26

Name the recorded log10 Ki of the item Cc1nn(-c2c(Cl)cccc2Cl)c(=O)c2cnc(Nc3ccc(N4CCNCC4)cc3)nc12 [Example 393] in your answer.
0.00

Name the recorded log10 Ki of the item C=CCn1nc(-c2ccccc2)c2nc(Nc3ccc4c(c3)CN(C)CC43CC3)ncc2c1=O [Example 172] in your answer.
0.40

Name the recorded log10 Ki of the item CC(=O)c1cccc(-c2nn(-c3c(Cl)cccc3Cl)c(=O)c3cnc(Nc4ccc(N5CCN(C)CC5)cc4)nc23)c1 [Example 185] in your answer.
-1.40

Name the recorded log10 Ki of the item Cc1nn(-c2c(Cl)cccc2Cl)c(=O)c2cnc(Nc3cccc(N4CCN(CCCO)CC4)c3)nc12 [Example 510] in your answer.
0.04

Name the recorded log10 Ki of the item CN1CCN(c2ccc(Nc3ncc4c(=O)n(-c5c(Cl)cccc5Cl)nc(-c5cccc(C#N)c5)c4n3)cc2)CC1 [Example 89] in your answer.
-1.15

The origin of these recorded values is patent US8796289B2.
